Tested on: PPARg homodimer (NR concentration 180 nM)
procedure_text: PBM binding z-score (relative to random genomic background probes); higher = stronger binding; sequences stand for … in GC…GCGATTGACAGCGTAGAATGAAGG
Rule: PBM binding z-score under 4 gives no, otherwise yes.

Asked: Is the recorded value of PBM binding z-score equal to or greater than 4 for this sequence? `AGAATGAGGTCATTAAGATCAGGGAATTGCGGTC`
Given back: no

Asked: Given the entry `ATCGAAAGGTCCAAGGTGAGTATACCCACCCGAA` , answer whether its PBM binding z-score meets or surpasses 4.
Given back: no

Asked: Does the sequence `CTCGAAAGGTCATGCTCAGGTGAGTATACCAAAC` have recorded PBM binding z-score that is 4 or more?
Given back: no

Asked: Decide: PBM binding z-score of `ATATGTAGGTTAGGGTCAGTCAGAAAGTAGGGAA` >= 4?
Given back: no

Asked: Decide: is the reported value of PBM binding z-score for `GGAACGAGGGCATTCGAGTTCATAGCATGGCGAT` equal to or greater than 4?
Given back: no

Asked: Hello, I need to know if `CGTCAAAGATCAAGGTAACGTAACAGAAAGCAGC` has measured PBM binding z-score not below 4. Thanks!
Given back: no

Asked: Is the recorded value of PBM binding z-score equal to or greater than 4 for this sequence? `TCTTGTAGATCAACAGGAGGTTAATAAAGATCGA`
Given back: no

Asked: Quick check, PBM binding z-score >= 4? `ATCGAAAGGTCGACGAGGTGAGTAAACACCGTTT`
Given back: no

Asked: Is the recorded value of PBM binding z-score equal to or greater than 4 for this sequence? `TAGCCTAGTTCATGCGGGCCAGTATAGTGTCGGC`
Given back: no

Asked: hey, is PBM binding z-score for this one >= 4? `CACACTAGGTCACAGAGGTCAAAGTCCGTGCGTA`
Given back: yes

Asked: Hello, I need to know if `CGAACTAGGTCATCCAGGTCAGTGAATACATTGA` has measured PBM binding z-score not below 4. Thanks!
Given back: yes

Asked: Assess whether reported PBM binding z-score for `CGTACAAGGTCAAAGGTCAGTGAAGAGATGACGG` sits at 4 or higher.
Given back: yes

Asked: Quick check, PBM binding z-score >= 4? `CAAACGAGGTCAAAGGTCAAAGTCGAGCCAACCA`
Given back: yes

Asked: Please check the record `CGAACTAGGTCGCCAGGACAGTGAAGAGGTTGGA` and state if its PBM binding z-score is at or above 4.
Given back: no

Asked: Decide: is the reported value of PBM binding z-score for `GGAACGAGGGCAAAGTTCATAGCATCTGTCGACG` equal to or greater than 4?
Given back: no

Asked: I'd appreciate it if you could say whether `CCTACTGGGTCAAAGGTCATTGATTCCAATGCTC` has PBM binding z-score at least equal to 4.
Given back: yes

Asked: Check the entry `CCTACGGGGCCACGAAAGGTCATTGATTCAGTGA` : does PBM binding z-score equal or exceed 4?
Given back: no

Asked: Confirm if PBM binding z-score reported for the sequence `AGAATGGGGTTATACGTAGATCAGGGAAGAAAGT` is 4 or above.
Given back: no

Asked: Textbook exercise: given the entry `CCGAGTAGGTTACTAGGGGGCATTCAGTGCGAAT` , state whether its PBM binding z-score is greater than or equal to 4.
Given back: no

Asked: Does the sequence `CGTCAAAGGTCAACTAAGGTAACGTAAAGCACGC` have recorded PBM binding z-score that is 4 or more?
Given back: yes

Asked: Determine whether this sequence has PBM binding z-score no lower than 4: `ATATGTAGGTTATCGGGTCATACAGTTTGCGCAT`
Given back: no

Asked: Textbook exercise: given the entry `CAAACTAGGTCACGAGAGGTCAAAGTCGAATGAC` , state whether its PBM binding z-score is greater than or equal to 4.
Given back: yes

Asked: Given the entry `CGCACTAGGTCATCCAGGACAGTGAATACATTGA` , answer whether its PBM binding z-score meets or surpasses 4.
Given back: no

Asked: Form field: PBM binding z-score at least 4? Entry: `CCTTAGGGGTCAAGGTTATAGCACGGGTGGTACG`
Given back: yes

Asked: Form field: PBM binding z-score at least 4? Entry: `CCTTACGGGTAACGAGGTTATAGCACGACGAGCG`
Given back: no
